System: anaesthetised dog
Assay: Cardiotonic activity in the dog (haemodynamics)
Assay type: in vivo, dog (male Beagle)
Details: i.v., 0.3 mg/kg
Items are presented alongside their recorded H.R..

Worked set:
{"Compound": "COC(=S)NN=C1C(=O)Nc2ccc(C3=NNC(=O)SC3C)cc21 (centres unmarked)", "Measured target": "anaesthetised dog", "H.R.": "+54 ± 11%"}
{"Compound": "CC1SC(=O)NN=C1c1ccc2c(c1)C(=Cc1ccccc1O)C(=O)N2 (centres unmarked)", "Measured target": "anaesthetised dog", "H.R.": "+9 ± 3%"}
{"Compound": "CC1SC(=O)NN=C1c1ccc2c(c1)C(=NNc1ccccc1)C(=O)N2 (centres unmarked)", "Measured target": "anaesthetised dog", "H.R.": "+18 ± 7%"}
{"Compound": "CC1SC(=O)NN=C1c1ccc2c(c1)C(=NO)C(=O)N2 (centres unmarked)", "Measured target": "anaesthetised dog", "H.R.": "+30%"}

Query block: Using known records, supply H.R. for CON=C1C(=O)Nc2ccc(C3=NNC(=O)SC3C)cc21 (centres unmarked)
Result block: +26 ± 10%

// data source = patent US5051417A
